Method Notes: Approximate solubility of Compound I-1-Acid in different solvents (manual dilution, visual observation)
Format: physicochemical
Experimental Conditions: Ethyl acetate; room temperature
Residues, ends and D or L forms follow the SMILES beside them. *: point of attachment. Palmitoyl = CCCCCCCCCCCCCCCC(=O)*
Quantity Kind: solubility

# get_value(readout='solubility', item= CCCCCCCCCCCCCCCC(=O)N1CCC[C@H]1C(=O)N1CCC[C@H]1C(=O)NCC(=O)N[C@@H](Cc1ccc(O)cc1)C(=O)O [Compound I-1-Acid] (Palmitoyl-PPGY-OH) )
< 1000 µg/mL

---

Method Notes: Approximate solubility of Compound I-1 (amorphous) in different solvents (manual dilution, visual observation)
Assay type: physicochemical
Experimental Conditions: 1,4-Dioxane, ambient laboratory temperature
Description: In this Example, approximate solubility tests of Compound I-1 (amorphous) were conducted in the different solvents at ambient laboratory temperature. The solubility was also tested by manual dilution combined with visual observation. In particular, a known amount of Compound I-1 was weighed and added to a vial. A known amount of solvent was gradually added to the vial with constant stirring. […]
Residues, ends and D or L forms follow the SMILES beside them. *: point of attachment. Palmitoyl = CCCCCCCCCCCCCCCC(=O)*
Quantity Kind: solubility

Data request, read-out solubility, for CCCCCCCCCCCCCCCC(=O)N1CCC[C@H]1C(=O)N1CCC[C@H]1C(=O)NCC(=O)N[C@@H](Cc1ccc(O)cc1)C(=O)[O-].[Na+] [Compound I-1 (Amorphous)] (Palmitoyl-PPGY-OH)
33.3 to 50 mg/mL
